Where these numbers come from: PubChem BioAssay (NCATS)

Reported Potency is given for each of the following compounds.
# tested system: Rap guanine nucleotide exchange factor 4 (Homo sapiens) (UniProt Q8WZA2)
# Sequence (Q8WZA2 whole entry, looked up): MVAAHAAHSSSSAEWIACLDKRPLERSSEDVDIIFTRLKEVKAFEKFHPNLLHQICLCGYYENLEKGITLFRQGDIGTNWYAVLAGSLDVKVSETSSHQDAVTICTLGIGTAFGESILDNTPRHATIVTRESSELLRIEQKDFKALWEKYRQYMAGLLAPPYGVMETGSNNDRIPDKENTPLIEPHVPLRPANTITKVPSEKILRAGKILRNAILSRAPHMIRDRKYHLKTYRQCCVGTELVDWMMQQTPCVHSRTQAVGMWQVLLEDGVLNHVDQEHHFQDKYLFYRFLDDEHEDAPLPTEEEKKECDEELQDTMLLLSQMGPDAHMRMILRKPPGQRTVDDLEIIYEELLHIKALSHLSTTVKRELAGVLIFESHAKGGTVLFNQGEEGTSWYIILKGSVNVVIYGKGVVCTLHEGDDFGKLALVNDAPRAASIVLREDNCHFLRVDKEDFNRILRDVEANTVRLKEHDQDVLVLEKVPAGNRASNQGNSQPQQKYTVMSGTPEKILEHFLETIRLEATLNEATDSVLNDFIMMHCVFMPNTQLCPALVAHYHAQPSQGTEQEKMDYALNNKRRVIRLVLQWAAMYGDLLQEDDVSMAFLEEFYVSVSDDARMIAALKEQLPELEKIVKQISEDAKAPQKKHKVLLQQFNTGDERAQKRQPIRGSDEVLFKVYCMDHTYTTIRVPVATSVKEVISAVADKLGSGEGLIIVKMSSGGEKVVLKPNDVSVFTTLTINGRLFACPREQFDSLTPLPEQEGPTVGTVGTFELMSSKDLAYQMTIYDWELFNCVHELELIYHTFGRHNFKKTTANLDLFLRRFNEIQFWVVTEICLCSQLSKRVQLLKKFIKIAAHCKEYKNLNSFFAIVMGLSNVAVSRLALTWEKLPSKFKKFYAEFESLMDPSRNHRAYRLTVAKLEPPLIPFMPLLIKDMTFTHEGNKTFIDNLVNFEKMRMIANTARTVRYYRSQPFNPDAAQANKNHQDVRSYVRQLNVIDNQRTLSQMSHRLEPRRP
# procedure summary: Confirmatory qHTS for agonist of cAMP-regulated guanine nucleotide exchange factor 4 (EPAC2) (AID 1645884);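 also: nucleotide exchange releases bodipy-GDP from Rap1 and this lowers its fluorescence; potency is read from the fitted curve at half-maximal effect; nearly all actives have a fitted effect of over 65% in size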
# condition description: EPAC2 GEF activity, Rap1B-BODIPY-GDP fluorescence; series mostly up to 154 µM
Inconclusive results are not listed. The source made the active and inactive calls. Calls follow the shape of the dose curve; as a rule, active = well fitted activation curve with a large enough effect; inconclusive = small, poorly fitted or top-dose-only effect; inactive = no such curve, though single readings can be large or run the other way.

Below, 2 compounds whose answers are already recorded.
chemical smiles	observed result
COc1ccc(N=Cc2c(O)n(Cc3ccccc3)c(=S)[nH]c2=O)c(OC)c1	100 µM (active)
Cn1cc(C=C2C(=O)NC(=O)NC2=O)c2ccccc21	63.1 µM (active)

Next, consider the following compound.
Just so you know, measured Potency for Cn1cc(/C=C2\C(=O)NC(=O)N(c3ccccc3)C2=O)c2ccccc21 came out at 112 µM (active)

====

# Tested on: CP237
# procedure summary: qHTS profiling for inhibitors of Plasmodium falciparum proliferation (AID 504749);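 also: 0% = DMSO vehicle and full inhibition = artemisinin control; nearly all actives have a fitted effect of over 60% in size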
# condition description: P. falciparum in erythrocytes, SYBR Green DNA, 72 h; series mostly up to 28.7 µM
Inconclusive results are not listed. Calls of active or inactive are those of the source. Calls follow the shape of the dose curve; as a rule, active = well fitted inhibition curve with a large enough effect; inconclusive = small, poorly fitted or top-dose-only effect; inactive = flat fitted curve, though single readings scatter.
Entry note: the call must match one of true (1) (active), false (0) (inactive)

Prompt: What did the test return for CN(C)[C@@H]1C(=O)C(C(N)=O)=C(O)[C@]2(O)C(=O)C3=C(O)c4c(O)ccc(Cl)c4[C@](C)(O)[C@H]3C[C@@H]12 ?
Response: false (0)

Prompt: Per the records of this test, what outcome belongs to CN[C@@H](C)[C@H]1CC[C@@H](N)[C@@H](O[C@@H]2[C@@H](O)[C@@H](O[C@H]3OC[C@@](C)(O)[C@@H](NC)[C@@H]3O)[C@H](N)C[C@@H]2N)O1 (tested in a mixture with another compound) ?
Response: false (0)

Prompt: What classification did C[C@@]12CC[C@H]3[C@@H](CC[C@@H]4C[C@H]5S[C@H]5C[C@]43C)[C@H]1CC[C@H]2O end up with in this test?
Response: false (0)

Prompt: How was CCNC[C@H](O)c1cccc(O)c1 classified in this test?
Response: false (0)

Prompt: Outcome logged for CC1=C2[C@@H]3OC(=O)[C@@H](C)[C@@H]3CC[C@]2(C)C=CC1=O in this assay:
Response: false (0)

Prompt: For COc1cc2c(cc1OC)[C@@]13CCN4CC5=CCOC6CC(=O)N2C1[C@H]6[C@@H]5C[C@@H]43 (stereo partly specified) , which call appears in the assay record?
Response: false (0)

Prompt: // outcome(item) with item = Clc1ccc([C@@H](OCCN2CCCCC2)c2ccccc2)cc1
Response: false (0)

Prompt: # fetch the recorded call for Oc1ccc2c3c1O[C@H]1[C@@H](O)CC[C@@]4(O)C(C2)N(CC2CCC2)CCC314 (stereo partly specified) here
Response: false (0)

====

# procedure summary: NFAT Signaling Pathway (AID 444);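 also: carbachol stimulus at about its EC50 of 1 µM final; % is scaled to controls: 0 for no effect and ±100 for the full control effect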
# condition description: Jurkat NFAT-bla M1, carbachol, beta-lactamase ratio, 5 h; at 17.2 µM (top of the series)
Results filed as inconclusive are left out.
recorded metric: activity change, negative = inhibition (%)
Give your result in % as a bare value.

Example entries and their recorded answers appear below.
compound	activity change, negative = inhibition [%]
C[N+]1([O-])[C@@H]2CC(OC(=O)[C@@H](CO)c3ccccc3)C[C@@H]1[C@H]1O[C@H]12 (stereo partly specified)	-52.1
COC1=C[C@H]2C3=C([C@H]2C1=O)[C@H](NC(C)=O)CCc1cc(OC)c(OC)c(OC)c13	-4.77
CCN[C@]1(c2cccs2)CCCCC1=O	-19.9
CN1CCc2cc3c(cc2[C@@H]1O)OCO3	-5.65
CNC[C@H](O)c1ccc(O)c(OC)c1	3.38
CO[C@H]1C=C2CCN(C)[C@@H]2[C@@H]2c3cc4c(cc3C(=O)O[C@H]21)OCO4	8.91

For C[C@H](NC(C)(C)C)C(=O)c1cccc(Cl)c1 the compound record lists activity change, negative = inhibition as -9.97

Reported activity change, negative = inhibition of CCNC[C@H](O)c1cccc(O)c1 : -13.2

====

# Test system: CP252
# procedure summary: qHTS profiling for inhibitors of Plasmodium falciparum proliferation (AID 504749);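 also: 0% = DMSO vehicle and full inhibition = artemisinin control; nearly all actives have a fitted effect of over 60% in size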
# condition description: P. falciparum in erythrocytes, SYBR Green DNA, 72 h; series mostly up to 12.8 µM
Records with an inconclusive call do not appear. The source made the active and inactive calls. Calls come from the whole dose curve; as a rule, active = well fitted inhibition curve with a large enough effect; inconclusive = small, poorly fitted or top-dose-only effect; inactive = flat fitted curve, though single readings scatter.
I would appreciate it if you answered using one of these outcomes: t (active), f (inactive)

Consider the worked cases shown below.
compound	class name
O=c1ccc2cc(O[C@H]3O[C@@H](CO)[C@@H](O)[C@@H](O)[C@@H]3O)c(O)cc2o1	f
Clc1ccc([C@@H](OCCN2CCCCC2)c2ccccc2)cc1	f

Prompt: // return assay outcome for C[C@]12CC[C@H](O)CC1=CCC1C2CC[C@]2(C)C(=O)CC[C@@H]12 (stereo partly drawn)
Response: f

Prompt: Recorded call for C[C@]12CC[C@H](OS(=O)(=O)O)CC1=CCC1C2CC[C@]2(C)C(=O)CC[C@@H]12 (stereo partly drawn) ?
Response: f

====

# procedure summary: Cytotoxicity counterscreen for inhibitors of SARS-CoV-2 cell entry (AID 1645845); also: nearly all actives have a fitted effect of over 50% in size
# condition description: cell viability (SARS-CoV-2 entry assay cells); series mostly up to 57.1 µM
# Method: Assay Provider: Wei Zheng, Ph.D. National Center for Advancing Translational Sciences, National Institute of Health, Rockville, MD. SARS-CoV-2 spike protein, within the viral envelope, mediates viral attachment and infection of host cells. The SARS-CoV-2 spike protein specifically binds to the host receptor ACE2 (Angiotensin-converting enzyme 2). […] 7. […] Dispense 4 uL/well of ATPLite 1step luminescence assay reagent (PerkinElmer #6016739). […] 9. […] Read luminescence signal (Viewlux plate reader, PerkinElmer). […]
Inconclusive results are not listed. The source made the active and inactive calls. The call rests on the fitted dose curve.

chemical smiles	outcome
C=C[C@H]1CN2CC[C@H]1C[C@H]2[C@H](O)c1ccnc2ccccc12	inactive
CO[C@@H]1C[C@H](O[C@H]2[C@H](C)[C@H](O[C@@H]3O[C@@H](C)C[C@@H](N(C)C)[C@H]3OC(C)=O)[C@H](C)C[C@]3(CO3)C(=O)[C@H](C)[C@H](OC(C)=O)[C@H](C)[C@H](C)OC(=O)[C@@H]2C)O[C@H](C)[C@H]1OC(C)=O	inactive
CCn1c(=O)c(-c2ccc(Cl)cc2Cl)cc2cnc(Nc3ccc(N4CCNCC4)c(F)c3)nc21	inactive

====

# tested system: Cytochrome P450 2C9 (Homo sapiens)
# procedure summary: qHTS Assay for Inhibitors and Substrates of Cytochrome P450 2C9 (AID 883); also: nearly all actives have a fitted effect of over 60% in size; also: potency is read from the fitted curve at half-maximal effect
# condition description: recombinant CYP2C9, luciferin-H luminescence, 60 min; series mostly up to 57.1 µM
# Procedure: NIH Molecular Libraries Screening Centers Network [MLSCN] NIH Chemical Genomics Center [NCGC] MLSCN Grant: None NCGC Assay Overview: The P450 gene superfamily is involved in the metabolism and clearance of xenobiotics. […] The luciferin is then measured by luminescence after the addition of a luciferase detection reagent. […] Inhibitors and some substrates limit the production of luciferin, and decrease measured luminescence. […]
Inconclusive results are not listed. Active and inactive are the calls of the source. The call rests on the fitted dose curve; in most records, active means well fitted inhibition curve with a large enough effect; inconclusive means small, poorly fitted or top-dose-only effect; inactive means no such curve, though single readings can be large or run the other way.
recorded metric: Potency

Some compounds with known Potency results, for comparison:
chemical smiles	Potency
CN1CC[C@]2(C)c3cc(O)ccc3N(C)[C@@H]12	25.1 µM (active)
COCC(=O)N1CCC2(CCCN(Cc3ccncc3)C2)CC1	5.01 µM (active)
CCC[C@@](C)(COC(N)=O)COC(=O)NC(C)C	inactive
COc1ccc2c(c1OC)C(=O)O[C@H]2[C@H]1c2cc3c(cc2CCN1C)OCO3	3.98 µM (active)

So, CC(C)[C@@]1(NC(=O)[C@@H]2C[C@H]3c4cccc5[nH]cc(c45)C[C@@H]3N(C)C2)O[C@]2(O)[C@H]3CCCN3C(=O)[C@H](Cc3ccccc3)N2C1=O ? Its Potency was 2.51 µM (active)

Looking up COc1ccc2c(c1O)-c1c(OC)c(OC)cc3c1[C@H](C2)N(C)CC3 , I found its Potency recorded as inactive

====

# tested system: Ubiquitin carboxyl-terminal hydrolase 1 (Homo sapiens)
# procedure summary: Inhibitors of USP1/UAF1: Pilot qHTS (AID 504865); also: nearly all actives have a fitted effect of over 35% in size; also: potency is read from the fitted curve at half-maximal effect
# condition description: purified USP1/UAF1, Ub-rhodamine cleavage fluorescence; series mostly up to 114 µM
Results filed as inconclusive are left out. The source made the active and inactive calls. The call rests on the fitted dose curve; in most records, active means well fitted inhibition curve with a large enough effect; inconclusive means small, poorly fitted or top-dose-only effect; inactive means flat fitted curve, though single readings scatter.
recorded metric: Potency

compound	Potency
CC[C@]1(c2cccc(O)c2)CCCCN(C)C1	inactive
CC(=O)OC1C(=O)[C@]2(C)C(O)CC3OC[C@]3(OC(C)=O)C2[C@@H](OC(=O)c2ccccc2)[C@]2(O)CC(O)C(C)=C1C2(C)C (some centres undefined)	inactive
COc1cc2c3cc1Oc1cc(ccc1O)C[C@@H]1c4c(cc(OC)c(O)c4Oc4cccc(c4)C[C@H]3N(C)CC2)CC[N+]1(C)C	inactive
COc1cc2c(cc1OC)[C@@]13CCN4CC5=CCOC6CC(=O)N2C1[C@H]6[C@@H]5C[C@@H]43 (some centres undefined)	inactive
C[C@@]12CC[C@H]3[C@@H](CC[C@@H]4C[C@H]5S[C@H]5C[C@]43C)[C@H]1CC[C@H]2O	inactive
C[N+]1([O-])[C@@H]2CC(OC(=O)[C@@H](CO)c3ccccc3)C[C@@H]1[C@H]1O[C@H]12 (some centres undefined)	inactive

Potency reading for CC12CCC3C(CCC4=C(O)C(=O)CCC43C)C1CCC2=O (centres undefined) : inactive

For this compound ( O=c1ccc2cc(O[C@H]3O[C@@H](CO)[C@@H](O)[C@@H](O)[C@@H]3O)c(O)cc2o1 ), measured Potency is inactive

compound CN1CC[C@]2(C)c3cc(O)ccc3N(C)[C@@H]12 , Potency observed: 2820 nM (active)
